Attribution: PubChem BioAssay AID1347419

z-score listing for selected molecules.
# ASSAY SYSTEM: Protein-tyrosine kinase 2-beta (Homo sapiens)
# PROTOCOL: antagonists of Pyk2 self-association, primary screen, Q293 cells, FERM NanoBiT luminescence, HTS (AID 1347419);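 note: the deposit names both 25 µM and 10 µM; negative z-score means lost luminescence so less FERM oligomerization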
# Design: dose or concentration left out as unconfirmed
# CONDITIONS: hits give low values
The campaign covered roughly 99,000 compounds. About 820 (0.83%) were called active. The full list was thinned out, with actives kept by preference.
Number, no unit, nothing else.

# example entries with known answers
Ask | Please state recorded z-score (tested on Protein-tyrosine kinase 2-beta (Homo sapiens)) of CCC(C)(C)n1nnnc1C(c1cccs1)N1CCN(c2nc3ccccc3s2)CC1 (stereo unspecified)
Reply | -3.48

Ask | Then this molecule: CCC(C)(C)n1nnnc1C(c1ccccc1OC)N1CCSCC1 (stereo unspecified)
Reply | -0.08

Ask | Then this molecule: CCC(C)(C)n1nnnc1C(c1cccs1)N1CCN(Cc2ccccc2)CC1 (stereo unspecified)
Reply | 0.51

Ask | Then this molecule: COc1ccc(N2C(=O)CNC2=S)cc1
Reply | 0.4

Ask | Then this molecule: Cc1ccc2nc(-c3cccnc3)c(NC3CCCC3)n2c1
Reply | 0.15

Here is the next item to consider.
Ask | Please state recorded z-score (tested on Protein-tyrosine kinase 2-beta (Homo sapiens)) of Cc1ccc(OCC(=O)OC(C)CN(C)Cc2ccccc2)cc1 (stereo unspecified)
Reply | 2.87

---

# ASSAY SYSTEM: Protein-tyrosine kinase 2-beta (Homo sapiens)
# PROTOCOL: antagonists of Pyk2 self-association, primary screen, Q293 cells, FERM NanoBiT luminescence, HTS (AID 1347419)
# Design: dose or concentration left out as unconfirmed
# CONDITIONS: hits give low values
Out of some 99,000 compounds screened, about 820 (0.83%) were called active. The sample as a whole holds a higher share of actives than the screen did.
Label MET when z-score is strictly below 0.2; otherwise label NOT MET.

Reference set (2 entries):
Ask | Record Cc1ccc(C(C)NC(=O)Cn2nc(C)c([N+](=O)[O-])c2C)cc1 (stereo unspecified) : is its z-score strictly below 0.2?
Reply | NOT MET

Ask | Then this compound: CCCn1c(C)cc(C(=O)COC(=O)c2c(C)nn(-c3ccccc3)c2C)c1C
Reply | NOT MET

Now let's try a different one.
Ask | Record Cc1ccc(OC(=O)c2cc3ccccc3o2)cc1 : is its z-score strictly below 0.2?
Reply | NOT MET

---

# ASSAY SYSTEM: Protein-tyrosine kinase 2-beta (Homo sapiens) (UniProt Q14289)
# Sequence (Q14289 whole entry, looked up): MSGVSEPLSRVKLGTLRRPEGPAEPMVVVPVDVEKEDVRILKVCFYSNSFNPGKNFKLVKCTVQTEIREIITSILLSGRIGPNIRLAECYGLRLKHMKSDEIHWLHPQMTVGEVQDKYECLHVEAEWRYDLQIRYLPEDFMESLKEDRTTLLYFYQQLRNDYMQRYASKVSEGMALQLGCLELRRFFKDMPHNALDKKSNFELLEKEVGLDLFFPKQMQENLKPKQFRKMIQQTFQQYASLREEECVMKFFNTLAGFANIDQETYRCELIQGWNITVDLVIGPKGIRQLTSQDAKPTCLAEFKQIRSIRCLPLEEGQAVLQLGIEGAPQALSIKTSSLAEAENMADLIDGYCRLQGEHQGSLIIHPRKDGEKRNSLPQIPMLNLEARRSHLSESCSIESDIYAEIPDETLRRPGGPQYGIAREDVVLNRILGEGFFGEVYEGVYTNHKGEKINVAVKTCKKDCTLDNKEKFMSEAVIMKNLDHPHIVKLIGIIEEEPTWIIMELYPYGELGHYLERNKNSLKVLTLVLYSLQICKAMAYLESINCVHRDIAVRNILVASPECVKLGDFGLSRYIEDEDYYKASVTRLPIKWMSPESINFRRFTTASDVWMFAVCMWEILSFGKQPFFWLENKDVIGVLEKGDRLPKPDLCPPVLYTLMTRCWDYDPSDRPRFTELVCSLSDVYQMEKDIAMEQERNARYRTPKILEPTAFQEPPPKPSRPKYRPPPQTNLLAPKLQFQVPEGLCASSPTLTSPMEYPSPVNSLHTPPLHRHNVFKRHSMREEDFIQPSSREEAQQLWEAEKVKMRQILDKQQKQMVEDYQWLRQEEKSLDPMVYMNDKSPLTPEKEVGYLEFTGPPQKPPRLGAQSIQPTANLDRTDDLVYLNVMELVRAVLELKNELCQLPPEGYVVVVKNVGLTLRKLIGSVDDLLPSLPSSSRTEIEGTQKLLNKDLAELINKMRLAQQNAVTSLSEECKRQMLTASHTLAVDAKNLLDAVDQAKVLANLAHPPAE
# PROTOCOL: antagonists of Pyk2 self-association, primary screen, Q293 cells, FERM NanoBiT luminescence, HTS (AID 1347419)
# Parameters: dose or concentration left out as unconfirmed
# CONDITIONS: hits give low values
The whole screen tested about 99,000 compounds, of which about 820 (0.83%) were called active. The full list was thinned out, with actives kept by preference.
Response field class: string, computed from recorded z-score by ranges low value: < -0.8; medium value: ≥ -0.8 and < 0.4; high value: ≥ 0.4

Ask | Into which bin does this compound go? COc1ccc(-c2cn(-c3ccc(OC)cc3)c(=S)[nH]2)cc1
Reply | high value

Ask | Then this compound: CCn1c(C(C)NC(=O)c2ccc(C)cc2)n[nH]c1=S (stereo not drawn)
Reply | medium value

Ask | Then this compound: CCCN1C(=O)C(Cc2nc3ccccc3c(=O)n2-c2ccccc2)c2cc(C)ccc21 (stereo not drawn)
Reply | medium value

Ask | Then this compound: N#Cc1c(/N=C/N2CCCC2)oc(-c2ccccc2)c1-c1ccccc1
Reply | low value

Ask | Then this compound: O=C(CCN1C(=O)c2ccccc2C1=O)Nc1ccncc1
Reply | high value

Others:
Ask | Into which bin does this compound go? Cc1ccc(Nc2nnc(SCC(=O)c3cc4ccccc4o3)s2)cc1C
Reply | medium value

---

# ASSAY SYSTEM: Protein-tyrosine kinase 2-beta (Homo sapiens)
# PROTOCOL: antagonists of Pyk2 self-association, primary screen, Q293 cells, FERM NanoBiT luminescence, HTS (AID 1347419);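 note: the deposit names both 25 µM and 10 µM; negative z-score means lost luminescence so less FERM oligomerization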
# Set-up: dose or concentration left out as unconfirmed
# CONDITIONS: hits give low values
Hit rate of the full screen: of about 99,000 compounds, about 820 (0.83%) were called active. Shown is part of a subset that was picked to be rich in actives.
OBSERVABLE: z-score
Number, no unit, nothing else.

# example entries with known answers
Ask | Would you kindly share the measured z-score for COc1cccc(C(=O)Nc2cc3c(cc2Br)OCCCO3)c1 ?
Reply | 0.23

Ask | Then this compound: Cc1cccc(NC(=O)COc2ccccc2C)n1
Reply | 0.47

Ask | Then this compound: CN1CCN(c2ccc(NC(=O)COc3ccc(Cl)cc3Cl)cc2)CC1
Reply | -0.4

Ask | Then this compound: Cc1ccccc1OCC(=O)Nc1ccc(N2CCN(C(=O)C(C)C)CC2)c(Cl)c1
Reply | -3.97

Ask | Then this compound: C=CCOC(=O)C1=C(C)NC(C)=C(C(=O)OCC=C)C1c1cccs1
Reply | -3.93

Others:
Ask | Would you kindly share the measured z-score for CN(C)c1cc[n+](Cc2ccccc2)cc1 ?
Reply | 0.16

---

# ASSAY SYSTEM: Protein-tyrosine kinase 2-beta (Homo sapiens) (UniProt Q14289)
# PROTOCOL: antagonists of Pyk2 self-association, primary screen, Q293 cells, FERM NanoBiT luminescence, HTS (AID 1347419);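 note: the deposit names both 25 µM and 10 µM; negative z-score means lost luminescence so less FERM oligomerization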
# Set-up: dose or concentration left out as unconfirmed
# CONDITIONS: hits give low values
In all, about 99,000 compounds went through this assay and about 820 (0.83%) were called active. This excerpt belongs to a sample that is enriched for actives.
OBSERVABLE: z-score
Number, no unit, nothing else.

# example entries with known answers
Ask | Please state recorded z-score (tested on Protein-tyrosine kinase 2-beta (Homo sapiens) (UniProt Q14289)) of C/C(=N\N=C(N)N)c1ccc(Cl)cc1
Reply | -0.37

Ask | Then this compound: COc1ccc(Br)cc1CN(C)CC(=O)Nc1cc([N+](=O)[O-])ccc1OC
Reply | -1.86

Ask | Then this compound: CCCC(=O)N1c2ccccc2NC2=C(C(=O)CCC2)C1c1ccc(F)cc1 (stereo not drawn)
Reply | -0.82

Ask | Then this compound: CC(C)CN(C(=O)CN1CCN(S(=O)(=O)c2ccccc2)CC1)c1c(N)n(CC(C)C)c(=O)[nH]c1=O
Reply | 0.05

Ask | Then this compound: CCCCC(=O)Nc1ccc2c(c1)OCCO2
Reply | -0.26

Others:
Ask | Please state recorded z-score (tested on Protein-tyrosine kinase 2-beta (Homo sapiens) (UniProt Q14289)) of COC(=O)c1ccc(C(=O)Nc2cc(Cl)ccc2Cl)cc1NC(=O)c1ccccc1C
Reply | 0.09

Ask | Then this compound: COc1ccc(S(=O)(=O)Nc2ccc(S(=O)(=O)N3CCCCC3)cc2)cc1OC
Reply | -1.09

Ask | Then this compound: CC(C)(C)C1CCC(=NNC(=O)c2cc(-c3ccccc3)n[nH]2)CC1 (stereo not drawn)
Reply | 0.56

---

z-score listing for selected compounds.
# ASSAY SYSTEM: Protein-tyrosine kinase 2-beta (Homo sapiens)
# PROTOCOL: antagonists of Pyk2 self-association, primary screen, Q293 cells, FERM NanoBiT luminescence, HTS (AID 1347419);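 note: the deposit names both 25 µM and 10 µM; negative z-score means lost luminescence so less FERM oligomerization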
# Parameters: dose or concentration left out as unconfirmed
# CONDITIONS: hits give low values
Screen size: about 99,000 compounds; about 820 (0.83%) were called active. Shown is part of a subset that was picked to be rich in actives.

Ask | Please state recorded z-score (tested on Protein-tyrosine kinase 2-beta (Homo sapiens)) of CC(C)(C)C1C/C(=C/c2ccco2)C(=O)/C(=C/c2ccco2)C1 (stereo unspecified)
Reply | 0.6 (inactive)

Ask | Then this compound: CCCC(=O)Nc1ccccc1N1CCN(C(=O)c2ccccc2)CC1
Reply | -1.16 (inactive)

Ask | Then this compound: Nc1nc(SCc2ccc([N+](=O)[O-])cc2)c2ncn(C3OC(CO)C(O)C3O)c2n1 (stereo unspecified)
Reply | 1.34 (inactive)

Ask | Then this compound: CCCCNC(=O)CCn1c(=O)c2ccccc2n(Cc2cc(C)ccc2C)c1=O
Reply | 1.04 (inactive)

Ask | Then this compound: O=C(Nc1ccc(-c2nnc(-c3ccccc3)o2)cc1)c1ccc(Br)o1
Reply | 0.72 (inactive)

Ask | Then this compound: Brc1ccc(-c2nnc(-c3ccccc3)o2)o1
Reply | -0.77 (inactive)

Ask | Then this compound: O=C(Nc1ccccc1N1CCN(C(=O)c2ccccc2)CC1)c1ccc2c(c1)OCO2
Reply | -3.44 (active)

Ask | Then this compound: COC(=O)c1cn(-c2ccccc2)nc1-c1cccnc1
Reply | -0.5 (inactive)

Others:
Ask | Please state recorded z-score (tested on Protein-tyrosine kinase 2-beta (Homo sapiens)) of COc1ccc(-c2nn(-c3ccccc3)cc2C(=O)Nc2nc(CC(C)=O)ns2)cc1
Reply | -3.37 (active)

Ask | Then this compound: CC(=O)Cc1nsc(NC(=O)c2csc3c2CCCC3)n1
Reply | -1.89 (inactive)

Ask | Then this compound: COc1cc(C(=O)Nc2nccs2)cc(OC)c1OC
Reply | -2.06 (inactive)
